- measurement protocol: LD50 (acute toxicity, i.g.)
- study conditions: in vivo, po, species not given
Field: LD50. Provide a value for each of the compounds that follow.
Field note: include the unit after the figure.

CCC(=O)N=C1N=S(=O)(c2ccccc2)c2ccccc21 (stereo not shown) [Example 6] ... 1600 mg/kg
CC(C)C(=O)N=C1N=S(=O)(c2ccccc2)c2ccccc21 (stereo not shown) [Example 7] ... 600 mg/kg
CCOC(=O)N=C1N=S(=O)(c2ccccc2)c2ccccc21 (stereo not shown) [Example 12] ... 1600 mg/kg

Req: Answer with the recorded LD50 for the compound listed here: CS1(=O)=NC(=NC(=O)c2ccccc2O)c2ccccc21 (stereo not shown) [Example 8]
Resp: 1600 mg/kg

From: patent US3953464A
